Hello, the source for this data is PubChem BioAssay AID712, in case you need it.

# experimental-system: Heat shock protein HSP 90-alpha (Homo sapiens) (UniProt P07900)
# assay-name: Hsp90 blockade concentration-response – dose response (AID 712)
# measurement-context: Hsp90 inhibition assay
Active and inactive are the calls of the source. No rule for the calls is given here.
Entry note: the call must match one of active, inactive

Worked set:
| molecule | experimental-system | answer-label |
| --- | --- | --- |
| C=CCn1c(N)c(C(=O)OCC(C)C)c2nc3ccccc3nc21 | Heat shock protein HSP 90-alpha (Homo sapiens) (UniProt P07900) | inactive |
| C[C@H]1CCC[C@H](O)CCCCCc2cc(O)cc(O)c2C(=O)O1 | Heat shock protein HSP 90-alpha (Homo sapiens) (UniProt P07900) | active |
| CCn1c(CSc2nnc3ccccn23)nc2cc(C(=O)O)ccc21 | Heat shock protein HSP 90-alpha (Homo sapiens) (UniProt P07900) | active |
| COc1cc(NCCN(CC(C)C)CC(C)C)c2ncccc2c1 | Heat shock protein HSP 90-alpha (Homo sapiens) (UniProt P07900) | inactive |

Asked: I'd appreciate the recorded outcome for c1ccc2[nH]c(SCc3ccc(-c4nnco4)cc3)nc2c1 from this test.
Given back: inactive

Asked: Next: COc1ccccc1-c1nnc2n1N=C(c1ccc(O)c(O)c1)CS2
Given back: active

Asked: Next: CC(=O)Oc1cc2oc(=O)cc(C)c2cc1OC(C)=O
Given back: inactive

Asked: Next: N#C/C(=C\c1ccc(O)c(O)c1)C(=O)NCCCc1ccccc1
Given back: active
